Target: ENaC (Mus musculus, UniProt Q61180+Q9WU38+Q9WU39)
Construct: Mouse kidney M-1 cells were cultivated in DMEM containing 5% FCS and 5 μM dexamethasone; endogenous in cells
Sequence (Q61180 whole entry): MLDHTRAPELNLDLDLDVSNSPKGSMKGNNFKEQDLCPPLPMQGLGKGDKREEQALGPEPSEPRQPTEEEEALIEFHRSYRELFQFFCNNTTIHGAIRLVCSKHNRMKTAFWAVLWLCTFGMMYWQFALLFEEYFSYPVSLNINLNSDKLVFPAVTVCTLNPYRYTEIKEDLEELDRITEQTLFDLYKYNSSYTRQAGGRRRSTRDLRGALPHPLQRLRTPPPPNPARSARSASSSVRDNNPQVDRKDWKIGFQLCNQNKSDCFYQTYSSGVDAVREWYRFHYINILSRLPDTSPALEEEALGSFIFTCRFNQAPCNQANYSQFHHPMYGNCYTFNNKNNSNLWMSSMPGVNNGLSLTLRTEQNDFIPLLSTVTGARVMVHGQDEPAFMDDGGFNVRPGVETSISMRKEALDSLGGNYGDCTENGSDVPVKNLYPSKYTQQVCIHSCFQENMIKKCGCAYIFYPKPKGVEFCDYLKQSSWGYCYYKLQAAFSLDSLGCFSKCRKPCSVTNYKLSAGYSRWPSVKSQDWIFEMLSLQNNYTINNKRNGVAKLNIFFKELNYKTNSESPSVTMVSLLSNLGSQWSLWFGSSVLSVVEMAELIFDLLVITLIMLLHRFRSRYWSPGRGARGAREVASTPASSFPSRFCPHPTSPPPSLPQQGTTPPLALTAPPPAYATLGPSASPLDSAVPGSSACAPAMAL
Sequence (Q9WU38 whole entry): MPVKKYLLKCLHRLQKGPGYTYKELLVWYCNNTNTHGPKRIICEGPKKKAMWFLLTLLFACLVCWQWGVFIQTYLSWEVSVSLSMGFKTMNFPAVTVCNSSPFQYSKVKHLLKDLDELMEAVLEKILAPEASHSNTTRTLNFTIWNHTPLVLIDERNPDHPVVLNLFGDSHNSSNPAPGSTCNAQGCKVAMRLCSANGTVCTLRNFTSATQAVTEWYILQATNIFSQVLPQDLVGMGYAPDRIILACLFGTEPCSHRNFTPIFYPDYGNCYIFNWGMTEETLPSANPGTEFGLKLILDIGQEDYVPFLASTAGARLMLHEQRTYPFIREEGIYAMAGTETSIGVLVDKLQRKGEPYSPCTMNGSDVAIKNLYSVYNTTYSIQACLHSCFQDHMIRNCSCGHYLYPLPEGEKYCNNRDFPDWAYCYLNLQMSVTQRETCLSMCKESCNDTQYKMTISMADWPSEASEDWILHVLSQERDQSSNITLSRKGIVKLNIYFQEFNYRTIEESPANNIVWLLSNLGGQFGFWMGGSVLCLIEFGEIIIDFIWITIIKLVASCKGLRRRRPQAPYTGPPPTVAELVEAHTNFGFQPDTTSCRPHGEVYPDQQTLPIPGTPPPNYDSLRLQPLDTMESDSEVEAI
Sequence (Q9WU39 whole entry): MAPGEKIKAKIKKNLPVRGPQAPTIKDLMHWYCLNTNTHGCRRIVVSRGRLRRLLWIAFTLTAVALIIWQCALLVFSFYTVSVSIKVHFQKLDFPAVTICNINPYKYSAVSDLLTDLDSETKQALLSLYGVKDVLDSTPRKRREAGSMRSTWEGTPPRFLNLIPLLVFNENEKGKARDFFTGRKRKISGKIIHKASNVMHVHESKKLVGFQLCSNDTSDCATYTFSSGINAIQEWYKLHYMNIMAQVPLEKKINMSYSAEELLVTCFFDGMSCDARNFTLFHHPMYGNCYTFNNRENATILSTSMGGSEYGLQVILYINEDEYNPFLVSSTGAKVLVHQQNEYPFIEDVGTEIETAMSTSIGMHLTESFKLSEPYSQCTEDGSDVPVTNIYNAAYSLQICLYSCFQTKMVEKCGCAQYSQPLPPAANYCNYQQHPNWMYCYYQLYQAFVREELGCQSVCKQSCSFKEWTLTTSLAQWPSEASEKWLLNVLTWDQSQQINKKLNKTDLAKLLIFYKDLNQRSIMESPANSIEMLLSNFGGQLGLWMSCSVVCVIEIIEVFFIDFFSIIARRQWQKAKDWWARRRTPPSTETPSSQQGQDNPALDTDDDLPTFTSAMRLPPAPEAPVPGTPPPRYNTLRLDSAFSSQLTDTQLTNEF
Measurement Notes: Ussing chamber: short circuit current (I_sc) in mouse kidney M-1 cells, amiloride-sensitive
Condition Description: compound applied to apical solution, 37° C.
Structures can show the parent of a compound that is named as a salt.
For each entry below, report its IC50 value.
Enter your answer as a number in nM; do not include the unit.

INPUT: Identify the reported IC50 for the following entry. N/C(=N\C(=O)c1nc(Cl)c(N)nc1N)NC1C[N+]2(CC(=O)O)CCC1CC2 (stereo not shown)
OUTPUT: 468

INPUT: Answer with the recorded IC50 of N=C(NC(=O)c1nc(Cl)c(N)nc1N)N[C@@H]1C[N+]2(CC(=O)N3CCC(C(=O)O)CC3)CCC1CC2 [Example 73.2, hydrochloride] only.
OUTPUT: 269

INPUT: Name the recorded IC50 of the compound listed here: NC(=NC(=O)c1nc(Cl)c(N)nc1N)N[C@@H]1C[N+]2(Cc3ccccc3OC(F)(F)F)CCC1CC2
OUTPUT: 69

INPUT: Determine its reported IC50: NC(=O)c1ccc(C[N+]23CCC(CC2)[C@H](NC(N)=NC(=O)c2nc(Cl)c(N)nc2N)C3)cc1
OUTPUT: 693
